# Tested on: NCI-H226
# measurement description: NCI tumour cell line growth inhibition, 48 h
Activity calls are given as the source filed them. Rule as the data show it: active = GI50 up to about 1.1 µM and inactive = higher.
Choose the fitting class; nothing outside True = active, False = inactive is accepted.

Test call for this molecule, please: COc1cc(-c2ccccc2)c(OC)cc1CCl
False

Hello, I am checking results. What call was entered for CCOCC(=O)N(C)c1cccc2c3c(n(C)c12)CCCCC3 ?
False

Kindly provide the recorded test outcome for the following molecule: COc1ccc(/C=C/C(=O)Oc2ccccc2OC)cc1
False

State the result this test recorded for COc1cc(C2C=C(c3ccccc3)Oc3cc4c(cc32)OCO4)cc(OC)c1OC (stereo not given) .
True

Any idea what this test logged for C=C(C)COC(=O)COCC(=O)OCC(=C)C ?
False

Outcome? O=C1C=CC(=O)N1c1ccc(I)cc1
False

What was the test verdict on CC1=CC2=C(C=O)C(=O)[C@](C)(O)[C@@H](O)C2=CO1 ?
False

Which result was noted for this molecule in the test: C=CC(C)(C)c1c(OC)oc2ccc(OC)c(C)c2c1=O
False

Lab log entry: CC(=O)C(=NNc1ccc(-n2c(C)nc3ccc(Br)cc3c2=O)cc1)C(C)=O — outcome as called in the assay?
False

# outcome recorded in this test, key = CC1(C)CC2C(C1=O)C1(C)CCCC2(C)C1=O (stereo not given)
False

Which result was noted for this molecule in the test: N#Cc1c(N2CCCC2)nsc1Nc1ccccc1
False

Recorded test call requested for Cn1cnc([N+](=O)[O-])c1Sc1nc(N)nc2c1ncn2Cc1ccccc1
False

What call does the record list for NC(CSC(=O)c1ccccc1)C(=O)O (stereo not given) ?
False

Test call for this molecule, please: CCOP(=O)(CN1CCNCCN(CP(=O)(OCC)OCC)CC1)OCC
False

Please let me know the test result on file for O=C1C[C@H]2CCCN2[C@@H](c2ccccc2)C1 .
False

Each molecule tested received a call. Report the one for C1CSC2=C(S1)SC1=C(S2)SC(=C2SC3=C(SC4=C(SCCS4)S3)S2)S1 .
False

// outcome(item) with item = COc1cccc(NC(=O)CC(=O)N2NC(C)C(/N=N/c3cccc(C(=O)O)c3)C2=O)c1 (stereo not given)
False

Hi team, can someone confirm the assay call for CC(=O)NC1CONC1=O (stereo not given) ?
False

Answer briefly: the call reported for O=[N+]([O-])c1cccnc1-n1cnc2ccccc21 in this assay.
False

Dear all, I need the recorded test outcome for O=CC1C(=O)Nc2nc3ccccc3n2C1c1ccccc1 (stereo not given) , thank you.
False

What did the test return for COC1(C)Cc2c(c(C)c(O)c3c2C(=O)C=C(Cl)C3=O)O1 (stereo not given) ?
False

So what was the verdict on CN(C)CCNc1ccc2c(=O)n(CCN(C)C)c(=O)n3c4ccc([N+](=O)[O-])cc4c(=O)c1c23 in this test?
True

Test call, this molecule: N#Cc1c(N)c(C#N)c2c(c1-c1ccc(Cl)cc1)COc1ccccc1-2
False

// return assay outcome for CCN(CC)c1ccc2cc(-c3csc(-c4ccc(N(C)C)cc4)n3)c(=O)oc2c1
False

State the result this test recorded for Cc1nc2sccn2c1C(=O)NC(=O)Nc1ccc(Cl)cc1 .
False

Which outcome was assigned to CC(=O)Nc1c(C(=N)C#N)ncn1CCO in this test?
False

Test call for this molecule, please: COc1cccc(NC(=O)CC(=O)N2N=C(C)C(/N=N\c3ccc(S(=O)(=O)c4ccc(/N=N/C5C(=O)N(C(=O)CC(=O)Nc6cccc(OC)c6)N=C5C)cc4)cc3)C2=O)c1 (stereo not given)
False

Would you mind telling me which call this test gave CC1=C(C(=O)Nc2ccccc2C)C(c2ccccc2)C(C(=O)Nc2ccccc2C)=C(C)N1 ?
False

Look up the recorded call for Nc1ccc2ncc(NCc3ccc(F)cc3)nc2c1 in this test.
False

Would you mind telling me which call this test gave COc1ccc(/C(=N\Nc2ccccn2)c2ccccn2)cc1 ?
True

Any idea what this test logged for [N-]=[N+]=Nc1c(Cl)c(Cl)nc2ccccc12 ?
False

What did the test return for N#CC1(Cc2ccccc2[N+](=O)[O-])c2ccccc2C2C(N1C(=O)c1ccccc1)C2(Cl)Cl (stereo not given) ?
False

I'd appreciate the recorded outcome for N=C(c1ccccc1)N(c1ccccc1)c1ccccc1 from this test.
False

What call does the record list for CC(C)NCCCC(C)Nc1ccnc2ccc3nn(C)nc3c12 (stereo not given) ?
False

Please state the recorded outcome for this molecule: O=C1/C(=C/c2ccc(Cl)cc2)N=C(c2ccccc2)N1C1Nc2cc3c(cc2S1)NC(N1C(=O)/C(=C/c2ccc(Cl)cc2)N=C1c1ccccc1)S3 (stereo not given)
False

----------
# System: HCC 2998
# measurement description: NCI tumour cell line growth inhibition, 48 h
Active and inactive are the calls of the source. No stated cut-off is given here; in the data, active = GI50 up to about 1.1 µM and inactive = higher.
In this exercise, the only acceptable responses are Y = active, N = inactive

GET /call?item= COC(=O)c1c(C)cc2c(c1O)C1(O)C(=O)c3cc4c(c(O)c3C(=O)C1(OC)C(O)C2)C(=O)C=C(NC1OC(C)C(OC)C(O)C1OC)C4=O (centres undefined) returns the recorded outcome of this test.
Y

Fill in: this test's call for COc1ccc(C(=O)NCCN(C)C)c2nc3ccccc3cc12 is ___
N

Answer briefly: the call reported for CCCCCCCC(=O)OCC1OC(n2cc(F)c(=O)[nH]c2=O)C(NC(=O)OCc2ccccc2)C(O)C1O (centres undefined) in this assay.
N

I'd appreciate the recorded outcome for O=[N+]([O-])c1cccnc1-n1cnc2ccccc21 from this test.
N

----------
# System: CAKI-1
# measurement description: NCI tumour cell line growth inhibition, 48 h
The source made the active and inactive calls. Rule as the data show it: active = GI50 up to about 1.1 µM and inactive = higher.
Field 'call' accepts y for active, n for inactive

How did this test come out for COc1cc(/C=C/C(=N\NS(=O)(=O)c2ccc(C)cc2)c2sc(NNC(C)=O)nc2C)ccc1O ?
n

Check the results log: what was the call for O=c1c(F)cn(Cc2c(Cl)cccc2Cl)c(=O)n1Cc1c(Cl)cccc1Cl ?
n

Look up the recorded call for COc1cc(-c2ccccc2)c(OC)cc1CCl in this test.
n

What is the recorded call for this compound in the test? O=c1c2ccccc2c(=O)c2c1c1[nH]c3ccccc3c1c1c(=O)c3ccccc3c(=O)c21
n

Fill in: this test's call for COC(=O)c1c(C)cc2c(c1O)C1(O)C(=O)c3cc4c(c(O)c3C(=O)C1(OC)C(O)C2)C(=O)C=C(NC1OC(C)C(OC)C(O)C1OC)C4=O (stereo not drawn) is ___
y

Please indicate how the test categorized N#CC1(C#N)C2CCCCC23OC(=N)C1(C#N)C(c1ccccc1)O3 (stereo not drawn) .
n

Query: recorded result category for O=[N+]([O-])c1cccnc1-n1cnc2ccccc21 in this test
n

Name the outcome recorded for O=C(O)Cn1cnc2c(O)nc(Nc3ccccc3)nc21 in the assay.
n

State the result this test recorded for Cc1ncc(CSC(=N)N)n1Cc1ccccc1 .
n

Kindly provide the recorded test outcome for the following compound: COc1cccc(C2CC(C)(O)Oc3cc4c(cc32)OCO4)c1O (stereo not drawn)
n

What classification did CN(C)/C=C/C(=CC=[N+](C)C)/C=C/N(C)C.[O-][Cl+3]([O-])([O-])[O-] end up with in this test?
n

Record request — test call for CCOC(=O)C(=[N+]=[N-])C(=O)C1(C(=O)OCC)CCN(C(=O)c2ccccc2)C1=O (stereo not drawn)
n

Can you look up the reported call for CCOC(=O)/C(C(C)=O)=C1/N[C@H](C(=O)OCC)CS1 for me?
n

Record lookup: outcome of this test for CC(C)N1CCOC(c2ccc(O)c(O)c2)C1 (stereo not drawn) ?
n

Any idea what this test logged for Cc1c(C(=O)Nc2ccccc2)nnn1-c1ccnc2cc(C(F)(F)F)ccc12 ?
n

Tell me the assay call for O=c1c2cc3c(=O)n4c(cc(-c5ccccc5)c5cc(Cl)ccc54)nc3cc2nc2cc(-c3ccccc3)c3cc(Cl)ccc3n12 please.
n

Tell me the recorded outcome of this test for CC1CCCc2c(CC3CC(=O)NC(=O)C3)n[nH]c21 (stereo not drawn) .
n

What did this assay record as the result for O=C(O)c1cnccc1-c1cc(=O)[nH]n1-c1ccccc1 ?
n

What did this assay record as the result for Cc1nc(Nc2nnc(-c3cc([N+](=O)[O-])cc([N+](=O)[O-])c3C)o2)sc1C(=O)CC(=O)Cc1nc2ccc(Cl)cc2nc1O ?
n

What did the test return for C[N+](C)(CCNC(=O)c1cccc2cc3ccccc3nc12)Cc1ccc([N+](=O)[O-])cc1 ?
n

Please share the test call associated with COc1ccc(C(=O)N(Cc2cccnc2)C(=S)N(Cc2cccnc2)C(=O)c2ccc(OC)cc2)cc1 .
n

Can you look up the reported call for COc1cccc(CCn2c(N)c(C(=O)O)c3ccc([N+](=O)[O-])cc3c2=O)c1 for me?
n

// return assay outcome for COC(=O)c1c(O)ccc2c1c1cc3ccccc3c(O)c1n2Cc1ccccc1Cl
n

For Cc1ccc(S(=O)(=O)N2CC2CCCCC=O)cc1 (stereo not drawn) , which call appears in the assay record?
n

Could you please tell me the result logged for O=S(=O)(O)c1cc(S(=O)(=O)O)c2c(/N=N/c3ccc(S(=O)(=O)O)c4ccccc34)c(O)ccc2c1 in this assay?
n

Recorded call for COc1ccc(-n2cnc3c(NC(Cc4ccccc4)C(=O)O)ncnc32)cc1 (stereo not drawn) ?
n

GET /call?item= [O-][n+]1c2ccccc2[n+]([O-])c2ccccc21 returns the recorded outcome of this test.
n

Name the outcome recorded for COC1(C(C)(C)C)C=C(C(C)(C)C)P(=O)(O)O1 (stereo not drawn) in the assay.
n

Recorded test call requested for O=c1nc(N2CCN(c3ccccc3)CC2)ccn1C1OC(CO)C(O)C1O (stereo not drawn)
n

I would be grateful if you could indicate the recorded call for CN(C)CCNC(=O)c1nc([N+](=O)[O-])cn1C .
n

Hi, do you know how NC(=O)c1cccc(/N=c2\oc3ccc(Br)cc3cc2-c2nc3ccccc3[nH]2)c1 came out in this test?
n

What is the recorded call for this compound in the test? NC(=O)CSc1c2cc(O)ccc2nc2ccc(O)cc12
n

Per the assay record, what outcome was assigned to CCOC(=O)c1nnsc1NC(=O)Nc1ccc(Cc2ccc(NC(=O)Nc3snnc3C(=O)OCC)cc2)cc1 ?
n
